# ASSAY_OVERVIEW: in vitro
# RUN_CONDITIONS: human, Caco-2, Caco-2 (cm/sec)
Where a SMILES comes first, the peptide text is derived from it. Bridges are numbered along the chain shown (N, C = ends). [ ]: non-standard residue; d: D form. The star is where a group is joined. Phe(4-COOH) = N[C@@H](Cc1ccc(C(=O)O)cc1)C(=O)O; NMeF = CN[C@@H](Cc1ccccc1)C(=O)O; NMeD = CN[C@@H](CC(=O)O)C(=O)O; NMeL = CN[C@@H](CC(C)C)C(=O)O; NMeV = CN[C@H](C(=O)O)C(C)C; Piperidide = C1CCN(*)CC1; dNMeA = CN[C@H](C)C(=O)O; NBuGly = CCCCNCC(=O)O; N(OH)Me = CN(O)*; Sar = CNCC(=O)O; tBu = CC(C)(C)*
OBSERVABLE: Papp (×10⁻⁶ cm/s)

INSERT INTO measurements (molecule, measurement) VALUES
  ('CCCCN1CC(=O)N(C)[C@@H](CC(C)C)C(=O)N[C@@H](COC(C)(C)C)C(=O)N(C)[C@@H](Cc2ccccc2)C(=O)N(C)[C@@H](CC(C)C)C(=O)N[C@H](C(=O)N2CCCCC2)CC(=O)N[C@H](C(C)C)C(=O)N(C)[C@@H](C(C)C)C(=O)N[C@@H](Cc2ccc(C(=O)N(C)O)cc2)C(=O)N(C)[C@@H](CC(C)C)C(=O)N[C@@H]([C@@H](C)O)C1=O [AP248] ([dV][NMeV][Phe(4-COOH)](N(OH)Me)[NMeL]T[NBuGly][NMeL]S(tBu)[NMeF][NMeL]D-Piperidide; lactam N-11)', 0.24),
  ('CC(C)C[C@@H]1NC(=O)[C@H](Cc2ccccc2)N(C)C(=O)[C@@H](C)N(C)C(=O)C[C@@H](C(=O)N2CCCCC2)N(C)C(=O)[C@H](Cc2ccccc2)N(C)C(=O)[C@H](Cc2ccccc2)N(C)C(=O)[C@H](COC(C)(C)C)NC(=O)[C@H](C(C)C)N(C)C(=O)CN(C)C(=O)[C@H]([C@@H](C)O)NC(=O)[C@H](CC(C)C)N(C)C1=O [pd199] ([dNMeA][NMeF]L[NMeL]T[Sar][NMeV]S(tBu)[NMeF][NMeF][NMeD]-Piperidide; lactam N-11)', 2.6);

====

# ASSAY_OVERVIEW: Membrane permeability test of cyclic peptides (Caco-2, modified/improved method of WO 2018/124162)
# RUN_CONDITIONS: human, Caco-2, Caco-2 (cm/sec), membrane permeability of cyclic peptides, Caco-2
Where a SMILES comes first, the peptide text is derived from it. Bridges are numbered along the chain shown (N, C = ends). [ ]: non-standard residue; d: D form. The star is where a group is joined. Phe(3-OMe,4-CONHMs) = COc1cc(C[C@H](N)C(=O)O)ccc1C(=O)NS(C)(=O)=O; NMeF = CN[C@@H](Cc1ccccc1)C(=O)O; NMeI = CC[C@H](C)[C@H](NC)C(=O)O; NMeL = CN[C@@H](CC(C)C)C(=O)O; Butyl(3S-OH) = C[C@H](O)CC*; NMeV = CN[C@H](C(=O)O)C(C)C; NMeAbu = CC[C@H](NC)C(=O)O; Piperidide = C1CCN(*)CC1; NBuGly = CCCCNCC(=O)O; Sar = CNCC(=O)O
OBSERVABLE: Papp (×10⁻⁶ cm/s)

INSERT INTO results (compound, comparison_operator, measurement) VALUES
  ('CCCCN1CC(=O)N(C)[C@@H](CC(C)C)C(=O)N[C@H](C(=O)N2CCCCC2)CC(=O)N(C)[C@@H](C(C)C)C(=O)N[C@@H](CC(C)C)C(=O)N(C)[C@@H](CC(C)C)C(=O)N(C)[C@@H](Cc2ccccc2)C(=O)N[C@@H](COCC[C@H](C)O)C(=O)N(C)[C@@H](Cc2ccccc2)C(=O)N(C)[C@@H](C(C)C)C(=O)N[C@@H]([C@@H](C)O)C1=O [AP107] ([NMeV]L[NMeL][NMeF]S(Butyl(3S-OH))[NMeF][NMeV]T[NBuGly][NMeL]D-Piperidide; lactam N-11)', '=', 0.93),
  ('CC[C@H](C)[C@H]1C(=O)N[C@@H]([C@@H](C)O)C(=O)N(C)CC(=O)N(C)[C@@H](CC)C(=O)N[C@H](C(=O)N2CCCCC2)CC(=O)N(C)[C@@H](CC(C)C)C(=O)N[C@@H](Cc2ccc(C(=O)NS(C)(=O)=O)c(OC)c2)C(=O)N(C)[C@@H](CC(C)C)C(=O)N(C)[C@@H](Cc2ccccc2)C(=O)N[C@@H](CC(C)C)C(=O)N(C)[C@@H](CC(C)C)C(=O)N1C [AP139] ([NMeL][Phe(3-OMe,4-CONHMs)][NMeL][NMeF]L[NMeL][NMeI]T[Sar][NMeAbu]D-Piperidide; lactam N-11)', '<', 0.25);
